# testDetails: chemical genetic growth profiling, strain panel (AID 1159580);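 also: tested at 20 µM; growth read once vehicle control cultures reached saturation at 30 °C; 1 = growth at the plate median or of vehicle wells; lower values mean less growth of the strain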
# appliedConditions: S. cerevisiae deletion strains, growth OD, locus YPR106W, strain ISR1, active compounds read low
Out of some 5,500 compounds screened, about 2,000 (36%) were called active. Inconclusive results (about 18%) are left out. The list shows a part of the results.
Parameter: normalized growth. Scope: all listed entries.
quantityMeasured: normalized growth

compound | quantityMeasured | recordedMeasurement
S=C(NNC(=S)NC1CC2C=CC1C2)Nc1ccc(Br)c(Cl)c1 (centres undefined) | normalized growth | 0.981
O=C(NCCNc1ncc(Cl)cc1C(F)(F)F)C(F)(F)Sc1ccccc1 | normalized growth | 0.982
Cc1nc(-c2ccccn2)nc(SCc2ccccc2)c1Cl | normalized growth | 0.95
CC(C)Cc1ccc(C(C)C(=O)Nc2nn(C)c3ccccc23)cc1 (centres undefined) | normalized growth | 0.979

----------
Parameter: normalized growth. Scope: all listed entries.
# testDetails: chemical genetic growth profiling, strain panel (AID 1159580);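 also: tested at 20 µM; growth read once vehicle control cultures reached saturation at 30 °C; 1 = growth at the plate median or of vehicle wells; lower values mean less growth of the strain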
# appliedConditions: S. cerevisiae deletion strains, growth OD, locus YJL187C, strain SWE1, active compounds read low
About 2,000 (36%) of roughly 5,500 compounds were called active. About 18% were inconclusive and are not listed. Some of the results follow.

compound | normalized growth
O=C(COc1ccc2c(c1)OCO2)N1CCN(c2ncc(C(F)(F)F)cc2Cl)CC1 | 1
COc1ccc(C(=O)CN2CCN(c3cc(C)nc4ccccc34)CC2)cc1 | 1
COC(=O)C[C@H]1C(C)(C)C(=O)[C@@H]2CC3C4=CC(=O)O[C@@H](c5ccoc5)[C@]4(C)CCC3[C@@]1(C)C2=O (stereo partly specified) | 0.998
CC1=NS(=O)(=O)c2cc(Cl)ccc2N1 | 0.979
C#C[C@]1(O)CCC2C3CCC4=CC(=O)CC[C@@H]4C3CC[C@@]21CC (stereo partly specified) | 0.997
CCOC(=O)c1ccc2[nH]c(-c3ccccc3)cc(=O)c2c1 | 1.01
OC(CCN1CCCCC1)(c1ccccc1)C1CCCCC1 (stereo unspecified) | 0.975
NC(=S)COc1ccccc1Cl | 0.983
CC1(C)CC[C@@]2(C(=O)O)C(C1)C1=CCC3[C@@]4(C)CC[C@H](O)C(C)(C)C4CC[C@@]3(C)[C@]1(C)C[C@@H]2O (stereo partly specified) | 1.01
COC(=O)C[C@H]1C(C)(C)C2(O)OC34CC2C(=O)[C@]1(C)C3CC[C@]1(C)C4=CC(=O)O[C@H]1c1ccoc1 (stereo partly specified) | 1.01
Nc1c2c(nc3ccccc13)CCCC2O (stereo unspecified) | 1.02
CC(C)(Sc1cc(C(C)(C)C)c(O)c(C(C)(C)C)c1)Sc1cc(C(C)(C)C)c(O)c(C(C)(C)C)c1 | 1
NNc1nncc2ccccc12 | 1.01
O=C(Nc1ccc(C(=O)O)c(O)c1)c1ccccc1 | 0.984
C#C[C@]1(O)CCC2C3CCC4=CC(=O)CC[C@@H]4C3CC[C@@]21C (stereo partly specified) | 0.983
O=c1oc2cc(O)ccc2s1 | 1

----------
Parameter: normalized growth. Scope: all listed entries.
# testDetails: chemical genetic growth profiling, strain panel (AID 1159580);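 also: tested at 20 µM; growth read once vehicle control cultures reached saturation at 30 °C; 1 = growth at the plate median or of vehicle wells; lower values mean less growth of the strain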
# appliedConditions: S. cerevisiae deletion strains, growth OD, locus YEL037C, strain rad23, active compounds read low
The whole screen tested about 5,500 compounds, of which about 2,000 (36%) were called active. Not shown: some 18% with an inconclusive outcome. Some of the results follow.
quantityMeasured: normalized growth

compound | recordedMeasurement
O=C(O)CC(O)(CC(=O)O)C(=O)O | 1.01
C#C[C@]1(O)CCC2C3CCC4=CC(=O)CC[C@@H]4C3CC[C@@]21CC (some centres not stated) | 0.983
CNCc1ccccc1 | 1.02
CC(C)(Oc1ccc(CCNC(=O)c2ccc(Cl)cc2)cc1)C(=O)O | 0.99
NC(Cc1c[nH]c2ccccc12)C(=O)O (configuration not stated) | 1.02
Cc1cc(C(C)(C)C)c(O)c(C(C)(C)C)c1 | 0.976
CC(C)CC(N(C)C)C1(c2ccc(Cl)cc2)CCC1 (configuration not stated) | 1.01
